- Study System: rnADAMTS-5 (1-564-6H) (Rattus norvegicus)
Form field: IC50 (one value per entry).
State the value, then name its unit.

Molecule	IC50
COC(CC1(C)NC(=O)NC1=O)C(=O)N1CCN(c2cccc(F)c2)[C@@H](C)C1 (stereo partly drawn) [compound 294]	128 nM
O=C1NC(=O)C(CCC(=O)N2CCN(c3cccc(Cl)c3)CC2)(c2ccc(Cl)cc2)N1 (stereo not drawn) [compound 74]	106 nM

[in] Look up IC50 for this molecule: CC(CC1(CCN)NC(=O)NC1=O)C(=O)N1CCN(c2cc(Cl)cc(Cl)c2)CC1 (stereo not drawn) [compound 210]
[out] 105 nM
